Assay: Acute toxicity (LD50 rat)
Conditions: in vivo, iv
recorded.metric: LD50 (mg/kg)
Answer format: numeric, mg/kg implied, no suffix.

Any idea what LD50 was measured for CCN(CC)CCOc1c(C)cc(C(=O)CC(c2ccccc2)c2ccccc2)cc1C [BC 58] ?
54

====

Test system: intestine of the guinea pig (BaCl2-spasmus)
Test: Spasmolytic effect, MAGNUS intestine of the guinea pig (against BaCl2-spasmus)
Conditions: Cavia porcellus, read-out: ED50 spasmolytic effect
I'd appreciate it if you could supply IC50 values for the items below.
Answer format: numeric, µg/mL implied, no suffix.

Any idea what IC50 was measured for COc1ccc(Cc2nccc3cc(OC)c(OC)cc23)cc1OC [Papaverine, reference compound] ?
0.79

Any idea what IC50 was measured for Cc1cc(C(=O)CC(c2ccccc2)c2ccccc2)cc(C)c1OCCN(C)C ?
0.79

Any idea what IC50 was measured for CCN(CC)CCOc1c(C)cc(C(=O)CC(c2ccccc2)c2ccccc2)cc1C ?
0.044

Any idea what IC50 was measured for Cc1cc(C(=O)CC(c2ccccc2)c2ccccc2)cc(C)c1OCCN(C(C)C)C(C)C ?
0.28

====

I'd appreciate it if you could supply LD50 values for the items below.
Assay: Acute toxicity (LD50 mouse)
Settings: in vivo, iv, read-out: LD50 mouse i.v.
Answer format: numeric, mg/kg implied, no suffix.

Any idea what LD50 was measured for COc1ccc(Cc2nccc3cc(OC)c(OC)cc23)cc1OC [Papaverine, reference compound] ?
44

Any idea what LD50 was measured for CC[N+](C)(CC)CCOc1c(C)cc(C(=O)CC(c2ccccc2)c2ccccc2)cc1C ?
7.93

Any idea what LD50 was measured for CCN(CC)CCOc1c(C)cc(C(=O)CC(c2ccccc2)c2ccccc2)cc1C ?
60
